Biological target: GDP-bound KRAS wild-type protein (Homo sapiens, UniProt P01116)
Sequence (P01116 whole entry): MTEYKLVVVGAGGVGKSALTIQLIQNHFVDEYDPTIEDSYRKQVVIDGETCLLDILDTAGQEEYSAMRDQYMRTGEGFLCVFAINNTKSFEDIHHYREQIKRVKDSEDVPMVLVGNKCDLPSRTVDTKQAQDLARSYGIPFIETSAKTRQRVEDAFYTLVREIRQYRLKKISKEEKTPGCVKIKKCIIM
Experiment: Binding to KRAS by surface plasmon resonance (SPR), Single Cycle Kinetics
Conditions: SPR, Single Cycle Kinetics, 1:1 binding model; GDP-bound KRAS wild-type protein; read-out: KRAS KD
Measurement kind: Kd (nM)
Express the result in nM but write the number alone.

Example results:
Smiles str | Measurement kind | Experimental value
CCO[C@@H]1C[C@H]2C(=O)NC3(CCC3)C(=O)N(C)[C@@H](C(CC)CC)C(=O)N(C)[C@H](C(=O)N(C)C)CC(=O)N(C)[C@@H](CC3CCCC3)C(=O)N[C@@H]([C@@H](C)CC)C(=O)N(C)CC(=O)N(C)[C@H]3C/C=C\CCN(C3=O)[C@@H](Cc3ccc(C(F)(F)F)cc3)C(=O)N(C)CC(=O)N[C@@H](CCc3ccc(Cl)c(Cl)c3)C(=O)N2C1 | Kd | 0.57
CCO[C@@H]1C[C@H]2C(=O)NC3(CCC3)C(=O)N(C)[C@@H](C3CCCC3)C(=O)N(C)[C@H](C)CC(=O)N(C)[C@@H](CC(C)C)C(=O)N[C@@H]([C@@H](C)CC)C(=O)N(C)CC(=O)N(C)[C@H]3C/C=C\CCN(C3=O)[C@@H](Cc3ccc(C)cc3)C(=O)N(C)CC(=O)N[C@@H](CCc3cc(F)c(C(F)(F)F)c(F)c3)C(=O)N2C1 | Kd | 0.26
CCO[C@@H]1C[C@H]2C(=O)NC3(CCC3)C(=O)N(C)[C@@H](C3CCCC3)C(=O)N(C)[C@H](C(=O)N3CCOCC3)CC(=O)N(C)[C@@H](CC3CCCCC3)C(=O)N[C@@H]([C@@H](C)CC)C(=O)N(C)CC(=O)N(C)[C@H]3C/C=C\CCN(C3=O)[C@@H](Cc3ccc(C)cc3)C(=O)N(C)CC(=O)N[C@@H](CCc3cc(F)c(C(F)(F)F)c(F)c3)C(=O)N2C1 | Kd | 0.35
CC[C@H](C)[C@@H]1NC(=O)[C@H](CC)N(C)C(=O)C[C@@H](C(=O)N2CCOCC2)N(C)C(=O)[C@H](C2CCCC2)N(C)C(=O)C2(CCC2)NC(=O)[C@@H]2CCCN2C(=O)[C@H](CCc2ccc(C(F)(F)F)c(Cl)c2)NC(=O)CN(C)C(=O)[C@H](Cc2ccc(C(F)(F)F)cc2)N2C[C@H](C)CC[C@@H](C2=O)N(C)C(=O)CN(C)C1=O | Kd | 0.14
CC[C@H](C)[C@@H]1NC(=O)[C@H](CC2CC2)N(C)C(=O)C[C@@H](C(=O)N(C)C)N(C)C(=O)[C@H](C2CCCC2)N(C)C(=O)C2(CC(C)(C)C2)NC(=O)[C@@H]2C[C@@H](C(F)(F)F)CN2C(=O)[C@H](CCc2cc(F)c(C(F)(F)F)c(F)c2)NC(=O)CN(C)C(=O)[C@H](Cc2ccc(F)cc2)N2CC/C=C\C[C@@H](C2=O)N(C)C(=O)CN(C)C1=O | Kd | 0.17

Could you share which Kd value was measured for CCC[C@H]1C(=O)N[C@@H]([C@@H](C)CC)C(=O)N(C)CC(=O)N(C)[C@H]2C/C=C\CCN(C2=O)[C@@H](Cc2ccc(C(F)(F)F)cc2)C(=O)N(C)CC(=O)N[C@@H](CCc2cc(F)c(C(F)(F)F)c(F)c2)C(=O)N2C[C@H](OCC)C[C@H]2C(=O)NC2(CCC2)C(=O)N(C)[C@@H](C2CCCC2)C(=O)N(C)[C@H](C(=O)N2CCOCC2)CC(=O)N1C ? 0.18

Next: CCO[C@@H]1C[C@H]2C(=O)NC3(CCC3)C(=O)N(C)[C@@H](C3CCCC3)C(=O)N(C)[C@H](C(=O)N(C)C)CC(=O)N(C)[C@@H](CC(C)C)C(=O)N[C@@H]([C@@H](C)CC)C(=O)N(C)CC(=O)N(C)[C@H]3C/C=C\CCN(C3=O)[C@@H](CC3CCC(F)(F)CC3)C(=O)N(C)CC(=O)N[C@@H](CCc3cc(F)c(C(F)(F)F)c(F)c3)C(=O)N2C1 0.12

Next: CCO[C@@H]1C[C@H]2C(=O)NC3(CCC3)C(=O)N(C)[C@@H](C(CC)CC)C(=O)N(C)[C@H](C(=O)N(C)C)CC(=O)N(C)[C@@H](COC)C(=O)N[C@@H]([C@@H](C)CC)C(=O)N(C)CC(=O)N(C)[C@H]3C/C=C\CCN(C3=O)[C@@H](Cc3ccc(C(F)(F)F)cc3)C(=O)N(C)CC(=O)N[C@@H](CCc3ccc(C(F)(F)F)c(OC)c3)C(=O)N2C1 0.18

Next: CC[C@H](C)[C@@H]1NC(=O)[C@H](CC)N(C)C(=O)C[C@@H](C(=O)N2CCOCC2)N(C)C(=O)[C@H](C2CCCC2)N(C)C(=O)C2(CCCC2)NC(=O)[C@@H]2CCCN2C(=O)[C@H](CCc2cc(F)c(C(F)(F)F)c(F)c2)NC(=O)CN(C)C(=O)[C@H](Cc2ccc(C(F)(F)F)cc2)N2C[C@H](C)CC[C@@H](C2=O)N(C)C(=O)CN(C)C1=O 0.17

Next: CCO[C@@H]1C[C@H]2C(=O)NC3(CCCC3)C(=O)N(C)[C@@H](C3CCCC3)C(=O)N(C)[C@H](C(=O)N(C)C)CC(=O)N(C)[C@@H](CC)C(=O)N[C@@H]([C@@H](C)CC)C(=O)N(C)CC(=O)N(C)[C@H]3C[C@@H](C)[C@@H](C)CN(C3=O)[C@@H](Cc3ccc(C(F)(F)F)cc3)C(=O)N(C)CC(=O)N[C@@H](CCc3ccc(C(F)(F)F)c(Cl)c3)C(=O)N2C1 0.03

Next: CCO[C@@H]1C[C@H]2C(=O)NC3(CCC3)C(=O)N(C)[C@@H](C3CCCC3)C(=O)N(C)[C@H](C(=O)N(C)C)CC(=O)N(C)[C@@H](COCC(F)(F)F)C(=O)N[C@@H]([C@@H](C)CC)C(=O)N(C)CC(=O)N(C)[C@H]3C/C=C\CCN(C3=O)[C@@H](Cc3ccc(C(F)(F)F)cc3)C(=O)N(C)CC(=O)N[C@@H](CCc3cc(F)c(C(F)(F)F)c(F)c3)C(=O)N2C1 0.046

----------
Target: UniProtKB P01116
Assay: Binding to KRAS by surface plasmon resonance (SPR), Single Cycle Kinetics
Settings: SPR, Single Cycle Kinetics, GDP-bound KRAS wild-type protein; read-out: KRAS KD
Measurement kind: Kd (nM)
Express the result in nM but write the number alone.

Compound | Experimental target | Kd / nM
CCC[C@H]1C(=O)N[C@@H]([C@@H](C)CC)C(=O)N2CCC[C@H]2C(=O)N(C)[C@H]2C/C=C\CCN(C2=O)[C@@H](CC2CCCCC2)C(=O)N(C)CC(=O)N[C@@H](CCc2ccc(C(F)(F)F)c(OC)c2)C(=O)N2C[C@H](OCC)C[C@H]2C(=O)N(C)C2(CCC2)C(=O)N(C)[C@@H](C(CC)CC)C(=O)N(C)[C@H](C(=O)N(C)C)CC(=O)N1C [PP2341] | UniProtKB P01116 | 3.6
CC[C@H](C)[C@@H]1NC(=O)[C@H](CC)N(C)C(=O)C[C@@H](C(=O)N(C)C)N(C)C(=O)[C@H](C2CCCC2)N(C)C(=O)C2(CCC2)NC(=O)[C@@H]2C[C@H](C)CN2C(=O)[C@H](CCc2cc(F)c(C(F)(F)F)c(F)c2)NC(=O)CN(C)C(=O)[C@H](Cc2ccc(C(F)(F)F)cc2)N2CC/C=C\C[C@@H](C2=O)N(C)C(=O)CN(C)C1=O [PP1134] | UniProtKB P01116 | 0.06

Attention now shifts to the item below.
Could you share which Kd value was measured for CCC(CC)[C@H]1C(=O)N(C)[C@H](C(=O)N(C)C)CC(=O)N(C)[C@@H](COC)C(=O)N[C@@H]([C@@H](C)CC)C(=O)N(C2CC2)CC(=O)N(C)[C@H]2C/C=C\CCN(C2=O)[C@@H](CC2CCCCC2)C(=O)N(C)CC(=O)N[C@@H](CCc2cc(F)c(C(F)(F)F)c(F)c2)C(=O)N2C[C@H](OC(C)C)C[C@H]2C(=O)NC2(CC(C)(C)C2)C(=O)N1C [PP2515] ? 5.1

----------
Target: UniProt P01116
Assay: Binding to KRAS by surface plasmon resonance (SPR), Single Cycle Kinetics
Conditions: SPR, Single Cycle Kinetics, GDP-bound KRAS wild-type protein; read-out: KRAS KD
Measurement kind: pKd
Scale note: pKd = -log10(concentration in M).

Smiles str | pKd
CCO[C@@H]1C[C@H]2C(=O)NC3(CCC3)C(=O)N(C)[C@@H](C3CCCC3)C(=O)N(C)[C@H](C(=O)N(C)C)CC(=O)N(C)[C@@H](Cc3ccc(Cl)c(Cl)c3)C(=O)N[C@@H]([C@@H](C)CC)C(=O)N(C)CC(=O)N(C)[C@H]3CCCCCN(C3=O)[C@@H](Cc3ccc(F)cc3)C(=O)N(C)CC(=O)N[C@@H](CCc3cc(F)c(C(F)(F)F)c(F)c3)C(=O)N2C1 | 9.74
CC[C@H](C)[C@@H]1NC(=O)[C@H](CC(F)F)N(C)C(=O)C[C@@H](C(=O)N(C)C)N(C)C(=O)[C@H](C2CCCC2)N(C)C(=O)C2(CC(C)(C)C2)NC(=O)[C@@H]2CC(F)(F)CN2C(=O)[C@H](CCc2cc(F)c(C(F)(F)F)c(F)c2)NC(=O)CN(C)C(=O)[C@H](Cc2ccc(C(F)(F)F)cc2)N2CC/C=C\C[C@@H](C2=O)N(C)C(=O)CN(C)C1=O | 10.24

Attention now shifts to the item below.
Could you share which pKd value was measured for CCC[C@H]1C(=O)N[C@@H]([C@@H](C)CC)C(=O)N(C)CC(=O)N(C)[C@H]2C/C=C\CCN(C2=O)[C@@H](Cc2ccc(C)cc2)C(=O)N(C)CC(=O)N[C@@H](CCc2ccc(C(F)(F)F)c(Cl)c2)C(=O)N2C[C@H](OCC)C[C@H]2C(=O)NC2(CC(C)(C)C2)C(=O)N(C)[C@@H](C2CCCC2)C(=O)N(C)[C@H](C(=O)N(C)C)CC(=O)N1C ? 10.22
